This section presents binders with their documented kon values.
Molecular target: T1, human IL-11 (AAH12506.1, Pro22-Leu199) (human, UniProt P20809 22-199)
T1 construct: The range Pro22-Leu199 counts on AAH12506.1; The Octet runs say only 'human IL-11'; also called hIL-11
T1 chain: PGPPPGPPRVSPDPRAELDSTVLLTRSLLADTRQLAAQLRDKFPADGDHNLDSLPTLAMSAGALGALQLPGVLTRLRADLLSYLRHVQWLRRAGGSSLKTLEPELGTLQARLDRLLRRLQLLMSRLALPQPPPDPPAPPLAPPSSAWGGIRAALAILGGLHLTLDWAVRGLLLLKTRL
Assay: BLI (Octet), antibody captured, human IL-11 in solution
EXPERIMENTAL ENDPOINT: kon (M⁻¹ s⁻¹)

binder="hz18A10-VHm5 + hz18A10-VLm9 (antibody, V domains shown, Constant regions not restated for this antibody) VH: EVQLVQSGAEVKKPGASVKVSCKASGYTFITYNMDWVRQAPGQGLEWMGTIYPGNGDTSYNQKFKGRVTMTRDTSTSTAYMELSSLRSEDTAVYYCARADLHFLDYWGQGTLVTVSS VL: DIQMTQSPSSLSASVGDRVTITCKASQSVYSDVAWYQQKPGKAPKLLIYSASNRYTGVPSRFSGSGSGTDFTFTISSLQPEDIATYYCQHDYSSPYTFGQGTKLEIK" readout_unit="M⁻¹ s⁻¹" readout_value=639000
binder="hz18A10-VHm19 + hz18A10-VLm19 (antibody, human IgG1, kappa, V domains shown, named hz18A10m19; also called hz18A10m19) VH: EVQLVQSGAEVKKPGASVKVSCKASGYTFTHYNMDWVRQAPGQGLEWMGTIYPGNADTSYNQKFKGRVTMTRDTSTSTVYMELSSLRSEDTAVYYCARGDLYALDYWGQGTLVTVSS VL: DIQMTQSPSSLSASVGDRVTITCKASQSVYRDVAWYQQKPGKAPKLLIYSASNRYTGVPSRFSGSGSGTDFTFTISSLQPEDIATYYCQHDYSSPYTFGQGTKLEIKR" readout_unit="M⁻¹ s⁻¹" readout_value=993000
